All figures here come from ChEMBL document CHEMBL4414630.

- System: HT-29
- ASSAY DETAILS: Cytotoxicity against human HT-29 cells assessed as inhibition of cell viability incubated for 24 hrs by MTS assay
- Type: cell-based
- DETAILS: HT-29, 24 h
OUTCOME MEASURE: IC50

smiles_input=CC1(C)C(=O)CC[C@@]2(C)[C@H]1CC[C@]1(C)C(=O)[C@@]3(C)OC(=O)C[C@@]213 experimental_system=HT-29 endpoint_result="> 40 µM"

Now, please, on to the next compound.
For CC(=O)O[C@H]1CC[C@@]2(C)[C@@H](CC[C@]3(C)C(=O)[C@@]4(C)OC(=O)C[C@@]234)C1(C)C the compound record lists IC50 as > 40 µM
